Just for reference, PubChem BioAssay (EPA / NIEHS) is where these values come from.

Read-out: CD40, CD40 (gene 958)
protocol.text: BSK_LPS_CD40: BioMAP Diversity Plus: LPS Assay for CD40 Biomarker Activity (AID 2283076)
particulars: primary human HUVEC with PBMC; actives raise or lower the signal
Calls of active or inactive are those of the source. Rule for the calls: active = hit-call score of the fitted dose curve at least 0.9, where 1 is the maximum; inactive = score below 0.9.
Outcomes: active, inactive

| compound | category.label |
| --- | --- |
| CCOC(=O)COc1cc(-c2nn(C)c(OC(F)F)c2Cl)c(F)cc1Cl | inactive |
| CCOC(=O)CC(SP(=O)(OC)OC)C(=O)OCC (stereo unspecified) | inactive |
| COP(=O)(NC(C)=O)SC (stereo unspecified) | inactive |
| CN(C)NC(=O)CCC(=O)O | inactive |
| CCC(=O)Nc1ccc(Cl)c(Cl)c1 | inactive |
| CCOP(=O)(SC(C)CC)N1CCSC1=O (stereo unspecified) | inactive |
| COc1cccc(C(=O)NN(C(=O)c2cc(C)cc(C)c2)C(C)(C)C)c1C | inactive |
| O=C(O)c1cc(Oc2ccc(C(F)(F)F)cc2Cl)ccc1[N+](=O)[O-] | inactive |
| CCCSP(=O)(OCC)Oc1ccc(Br)cc1Cl (stereo unspecified) | inactive |
| CCC(CC)Nc1c([N+](=O)[O-])cc(C)c(C)c1[N+](=O)[O-] | active |
| CC(C)N(C(=O)SCC(Cl)=C(Cl)Cl)C(C)C | active |
| S=C1NCCN1 | inactive |
| CCOP(=S)(Oc1cnc(C(C)(C)C)nc1)OC(C)C (stereo unspecified) | active |
| COc1ccc(C(=CC(=O)N2CCOCC2)c2ccc(Cl)cc2)cc1OC | active |
| CCc1cnc(C2=NC(C)(C(C)C)C(=O)N2)c(C(=O)O)c1 (stereo unspecified) | inactive |
| CSc1nc(NC(C)C)nc(NC(C)C)n1 | inactive |
| Cc1nn(-c2cc(NS(C)(=O)=O)c(Cl)cc2Cl)c(=O)n1C(F)F | inactive |
| CCNc1nc(Cl)nc(NC(C)(C)C#N)n1 | inactive |
| CCOP(=S)(OCC)SCCSCC | inactive |
| COP(=O)(OC)C(O)C(Cl)(Cl)Cl (stereo unspecified) | inactive |
| CC(C1CC1)C(O)(Cn1cncn1)c1ccc(Cl)cc1 (stereo unspecified) | inactive |
| CCCCSP(=O)(SCCCC)SCCCC | active |
| Cc1ccn2nc(S(=O)(=O)Nc3c(F)cccc3F)nc2n1 | inactive |
| CCOP(=S)(OCC)Oc1ccc([N+](=O)[O-])cc1 | active |
| CC(C)=CC1C(C(=O)OCN2C(=O)C3=C(CCCC3)C2=O)C1(C)C (stereo unspecified) | active |
| C[Si](Cn1cncn1)(c1ccc(F)cc1)c1ccc(F)cc1 | inactive |
